Listed below: EC50 values for each entry.
- target-of-assay: hS1P1/CHO cells (Homo sapiens (Human), UniProt P21453)
- Sequence (P21453 whole entry): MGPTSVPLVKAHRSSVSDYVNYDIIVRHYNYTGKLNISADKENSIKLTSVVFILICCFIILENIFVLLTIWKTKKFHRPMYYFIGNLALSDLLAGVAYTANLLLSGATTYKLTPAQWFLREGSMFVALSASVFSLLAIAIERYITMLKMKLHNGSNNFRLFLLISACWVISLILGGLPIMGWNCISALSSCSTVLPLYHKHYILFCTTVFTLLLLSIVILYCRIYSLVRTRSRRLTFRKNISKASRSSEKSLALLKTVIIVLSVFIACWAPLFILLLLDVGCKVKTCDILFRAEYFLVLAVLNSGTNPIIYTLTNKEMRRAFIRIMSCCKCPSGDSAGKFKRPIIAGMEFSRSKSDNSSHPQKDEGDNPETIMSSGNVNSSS
- measurement-description: hS1P1 ERK phosphorylation (S1P1 pERK)
- conditions-used: phosphate examples

Examples from the recorded data:
{"columns": ["compound", "target-of-assay", "EC50"],
 "data": [
  ["CCCCC1CCc2cc([C@H]3CC[C@](N)(COP(=O)(O)O)C3)ccc2C1=O (stereo partly shown)", "hS1P1/CHO cells (Homo sapiens (Human), UniProt P21453)", "< 10 nM"],
  ["CCCCCC(=O)NC1CCc2cc([C@H]3CC[C@@](N)(COP(=O)(O)O)C3)ccc2C1 (stereo partly shown)", "hS1P1/CHO cells (Homo sapiens (Human), UniProt P21453)", "< 10 nM"],
  ["CCCCC[C@H]1CCc2cc([C@@H]3CC[C@@](N)(COP(=O)(O)O)C3)ccc2C1", "hS1P1/CHO cells (Homo sapiens (Human), UniProt P21453)", "< 10 nM"]
]}

Moving on to another compound below.
Query: For the compound shown here, COCc1cccc(C[C@@H]2CCc3cc([C@H]4CC[C@](N)(COP(=O)(O)O)C4)ccc3C2)c1 , give the reported EC50.
Response: 10 to 100 nM
